Hello, the source for this data is patent US20220298163A1, in case you need it.

# Assayed System: Btk kinase (aa2-659, Carna Biosciences) (Homo sapiens)
# Construct: purchased Carna Biosciences
# Sequence (Q06187 2-659): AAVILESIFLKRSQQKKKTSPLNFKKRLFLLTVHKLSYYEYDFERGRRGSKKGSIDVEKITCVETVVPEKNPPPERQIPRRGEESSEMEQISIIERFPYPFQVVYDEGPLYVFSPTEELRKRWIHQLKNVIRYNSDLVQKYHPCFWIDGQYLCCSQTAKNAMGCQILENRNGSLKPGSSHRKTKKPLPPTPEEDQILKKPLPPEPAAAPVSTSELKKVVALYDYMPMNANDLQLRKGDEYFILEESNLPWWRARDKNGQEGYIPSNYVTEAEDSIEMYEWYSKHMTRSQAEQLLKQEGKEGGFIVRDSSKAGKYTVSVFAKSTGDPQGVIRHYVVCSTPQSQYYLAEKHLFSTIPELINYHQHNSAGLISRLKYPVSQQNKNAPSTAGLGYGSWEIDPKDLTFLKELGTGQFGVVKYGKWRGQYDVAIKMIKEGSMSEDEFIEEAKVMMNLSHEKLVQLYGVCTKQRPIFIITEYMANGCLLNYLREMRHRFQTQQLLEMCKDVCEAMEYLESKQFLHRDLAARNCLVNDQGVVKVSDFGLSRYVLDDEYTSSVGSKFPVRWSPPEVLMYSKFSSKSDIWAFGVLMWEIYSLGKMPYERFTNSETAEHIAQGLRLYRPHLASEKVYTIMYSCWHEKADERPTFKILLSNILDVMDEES
# Test: Btk kinase enzymatic assay (TR-FRET)
# Assay type: biochemical
# Assay Context: TR-FRET, 30 μM ATP, compound incubated with kinase 60 minutes
Parameter Measured: IC50 (nM)

Below: 10 compounds and their reported IC50.
                                   compound  result_number
0  C=CC(=O)N1CCC(C2CCNc3c(C(N)=O)c(-c4cc(OC)c(C(=C)c5ccccc5)c(OC)c4)nn32)CC1 (stereo not drawn) [Example A43]            6.8
1  C=CC(=O)N1CCC(C2CCNc3c(C(N)=O)c(-c4ccc(Cl)cc4)nn32)CC1 (stereo not drawn) [reference compound]             22
2  C=CC(=O)N1CCC(C2CCNc3c(C(N)=O)c(-c4cc(C)cc(C)c4)nn32)CC1 (stereo not drawn) [Example A30]             53
3  C=CC(=O)N1CC(C2CCNc3c(C(N)=O)c(-c4cc(OC)c(Br)c(OC)c4)nn32)C1 (stereo not drawn) [Example B2]              5
4  C=CC(=O)N1CCC(C2CCNc3c(C(N)=O)c(-c4cc(Cl)c(C)c(OCC)c4)nn32)CC1 (stereo not drawn) [Example A49]             18
5  C=CC(=O)N1CCC2C(CNc3c(C(N)=O)c(-c4cc(OC)c(C)c(OC)c4)nn32)C1 (stereo not drawn) [Example D1]             10
6  C=CC(=O)N1CCC(C2CCNc3c(C(N)=O)c(-c4cc(OC)c(-c5ccco5)c(OC)c4)nn32)CC1 (stereo not drawn) [Example A19]            7.2
7  C=CC(=O)N1CCC(C2CCNc3c(C(N)=O)c(-c4cc(OC)c(CCc5ccccc5)c(OC)c4)nn32)CC1 (stereo not drawn) [Example A42]              3
8  C=CC(=O)N1CCC(C2CCNc3c(C(N)=O)c(-c4cc(OC)c(I)c(OC)c4)nn32)CC1 (stereo not drawn) [Example A8]           0.93
9  C=CC(=O)N1CCC(C2CCNc3c(C(N)=O)c(-c4cc(OC)c(C5CCOCC5)c(OC)c4)nn32)CC1 (stereo not drawn) [Example A32]             52

1 = C=CC(=O)N1CCC2Nc3c(C(N)=O)c(-c4cc(OC)c(C)c(OC)c4)nn3CC2C1 (stereo not drawn) [Example D2]
2 = C=CC(=O)N1CC(C2CCNc3c(C(N)=O)c(-c4cc(OC)c(C)c(OC)c4)nn32)C1 (stereo not drawn) [Example B3]
Dear colleague, could you let me know whether 1 or 2 has the lower recorded IC50? Thanks. Your answer should be the label attached to the chosen record.
2

---

# Assayed System: EGFR (Homo sapiens)
# Sequence (P00533 25-1210): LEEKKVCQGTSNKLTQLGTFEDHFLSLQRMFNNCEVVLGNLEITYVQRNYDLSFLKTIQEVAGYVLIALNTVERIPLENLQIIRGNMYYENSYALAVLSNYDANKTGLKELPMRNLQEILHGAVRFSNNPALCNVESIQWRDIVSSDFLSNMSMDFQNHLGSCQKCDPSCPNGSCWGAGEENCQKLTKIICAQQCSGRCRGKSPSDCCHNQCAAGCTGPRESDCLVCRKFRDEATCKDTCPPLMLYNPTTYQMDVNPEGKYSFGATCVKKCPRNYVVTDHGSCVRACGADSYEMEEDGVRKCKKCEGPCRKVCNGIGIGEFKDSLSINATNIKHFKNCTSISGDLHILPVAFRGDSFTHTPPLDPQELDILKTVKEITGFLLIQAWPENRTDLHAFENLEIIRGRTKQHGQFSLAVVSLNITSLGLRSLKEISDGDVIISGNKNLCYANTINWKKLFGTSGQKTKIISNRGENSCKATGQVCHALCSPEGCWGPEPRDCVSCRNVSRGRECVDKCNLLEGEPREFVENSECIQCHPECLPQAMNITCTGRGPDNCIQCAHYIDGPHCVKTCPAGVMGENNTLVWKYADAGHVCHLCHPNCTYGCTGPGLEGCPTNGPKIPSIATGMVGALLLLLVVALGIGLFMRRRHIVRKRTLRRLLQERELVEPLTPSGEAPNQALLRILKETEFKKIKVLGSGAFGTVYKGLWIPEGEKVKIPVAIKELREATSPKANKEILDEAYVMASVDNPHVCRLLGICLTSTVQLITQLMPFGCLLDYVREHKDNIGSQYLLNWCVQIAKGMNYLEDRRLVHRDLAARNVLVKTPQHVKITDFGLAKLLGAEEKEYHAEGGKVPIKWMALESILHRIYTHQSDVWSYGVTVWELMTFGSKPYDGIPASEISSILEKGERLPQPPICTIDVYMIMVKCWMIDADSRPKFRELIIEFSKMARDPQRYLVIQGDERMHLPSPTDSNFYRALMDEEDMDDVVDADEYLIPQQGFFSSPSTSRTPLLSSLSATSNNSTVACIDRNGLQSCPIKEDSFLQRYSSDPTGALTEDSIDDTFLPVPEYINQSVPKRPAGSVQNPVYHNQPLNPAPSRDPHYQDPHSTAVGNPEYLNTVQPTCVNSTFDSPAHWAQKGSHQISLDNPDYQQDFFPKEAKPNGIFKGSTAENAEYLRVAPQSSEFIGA
# Test: Biochemical kinase selectivity: IC50 determination of EGFR
# Assay Context: TR-FRET, 20 μM ATP
Parameter Measured: IC50 (nM)

Would you please look over these solved cases?
>>> print(df.to_string())
                                   compound  result_number
0  C=CC(=O)N1CC(C2CCNc3c(C(N)=O)c(-c4cc(OC)c(C)c(OC)c4)nn32)C1 (stereo not shown)           1910
1  C=CC(=O)N1CCC(C2CCNc3c(C(N)=O)c(-c4cc(OC)c(/C=C/c5ccccc5)c(OC)c4)nn32)CC1 (stereo not shown)           1510

P = C=CC(=O)N1CCC(C2CCNc3c(C(N)=O)c(-c4cc(Cl)c(C5CC5)c(OC)c4)nn32)CC1 (stereo not shown)
Q = C=CC(=O)N1CCC(C2CCNc3c(C(N)=O)c(-c4cc(OC)c(C(=C)c5ccccc5)c(OC)c4)nn32)CC1 (stereo not shown)
R = C=CC(=O)Nc1ccccc1C1CCNc2c(C(N)=O)c(-c3cc(F)c(F)c(Cl)c3)nn21 (stereo not shown) [Example 158, reference compound]
S = C=CC(=O)N1CCC(C2CCNc3c(C(N)=O)c(-c4cc(C)c(C)c(OC)c4)nn32)CC1 (stereo not shown)
Hey, quick one: sort these by IC50, largest value first please. # the answer lists labels in the order requested
Q, P, S, R
(Q: 6180 nM, P: 2570 nM, S: 405 nM, R: 0.49 nM)
